- System: SOSV minigenome
- procedure text: microbe, parasite or virus in culture
- recorded conditions: Sosuga virus, Huh-7, 72 h, read-out: Minigenome activity (Relative ZsG fluorescence)
Give measured activity at 5 µM for each item. Keep answers brief.
Answers are plain numbers, in %.

Dear colleague, could you please provide activity at 5 µM for the molecules listed below?
1. Nc1ncnc2c1nnn2[C@@H]1O[C@H](CO)[C@@H](O)[C@H]1O [8-Azaadenosine]
2. CO[C@@H]1[C@H](O)[C@@H](CO)O[C@H]1n1ccc(=O)[nH]c1=O [2′-O-Methyluridine]
3. O=c1[nH]c(=O)n([C@@H]2O[C@H](CO)[C@@H](O)[C@H]2O)cc1F [5-fluorouridine]

Marked response:
2
142
10

----------
- procedure text: in vitro
- recorded conditions: human
Give measured viability for each item. Keep answers brief.

Worked examples, 3 compounds total:
- compound: "Nc1ccn([C@@H]2O[C@H](CO)[C@@H](O)[C@H]2F)c(=O)n1 [2′-deoxy-2′-fluorocytidine]"
  viability: "> 80%"
- compound: "O=c1[nH]c(=O)n([C@@H]2O[C@H](CO)[C@@H](O)[C@H]2O)cc1F [5-fluorouridine]"
  viability: "> 80%"
- compound: "COc1c(C)c2c(c(O)c1C/C=C(\\C)CCC(=O)O)C(=O)OC2 [Mycophenolic acid]"
  viability: "> 80%"

Attention now shifts to the item below.
Exam item: GET /values?readout=viability&item= O=c1cnn([C@@H]2O[C@H](CO)[C@@H](O)[C@H]2O)c(=O)[nH]1 [6-azauridine]
Marked response: > 80%

----------
- System: rSOSV
- procedure text: microbe, parasite or virus in culture
- Assay type: cell-based
- recorded conditions: Sosuga virus, Huh-7, 48 h, read-out: EC50 (rSOSV protein immunofluorescence)
Give measured EC50 for each item. Keep answers brief.
Put down the number, then write its unit next to it.

Dear colleague, could you please provide EC50 for the compounds listed below?
1. COc1c(C)c2c(c(O)c1C/C=C(\C)CCC(=O)O)C(=O)OC2
2. Nc1ccn([C@@H]2O[C@H](CO)[C@@H](O)[C@H]2F)c(=O)n1
3. O=c1cnn([C@@H]2O[C@H](CO)[C@@H](O)[C@H]2O)c(=O)[nH]1

Marked response:
1: 0.48 µM; 2: 4.09 µM; 3: 8.9 µM

----------
- Test system: SOSV minigenome
- procedure text: microbe, parasite or virus in culture
- recorded conditions: Sosuga virus, Huh-7, 72 h, read-out: Minigenome activity (Relative ZsG fluorescence)
readout kind: activity at 5 µM (%)
Answers are plain numbers, in %.

Worked examples, 5 molecules total:
- molecule: "Nc1nc(Cl)nc2c1ncn2[C@@H]1O[C@H](CO)[C@@H](O)[C@H]1O [2-Chloroadenosine]"
  measured value: 145
- molecule: "CC(C)OC(=O)[C@H](C)N[P@](=O)(OC[C@H]1O[C@@H](n2ccc(=O)[nH]c2=O)[C@](C)(F)[C@@H]1O)Oc1ccccc1 [PSI-7977]"
  measured value: 89
- molecule: "C[C@H](Cn1cnc2c(N)ncnc21)OCP(=O)(O)O [Tenofovir]"
  measured value: 107
- molecule: "NC(=O)c1ncn([C@@H]2O[C@H](CO)[C@@H](O)[C@H]2O)n1 [Ribavirin]"
  measured value: 78
- molecule: "COc1c(-c2ccc3cc(NS(C)(=O)=O)ccc3c2)cc(-n2ccc(=O)[nH]c2=O)cc1C(C)(C)C [ABT-333]"
  measured value: 105

Dear colleague, could you please provide activity at 5 µM for the molecules listed below?
1. [N-]=[N+]=Nc1cn([C@@H]2O[C@H](CO)[C@@H](O)[C@H]2O)c(=O)[nH]c1=O [5-Azidouridine]
2. CC[C@H]1OC(=O)[C@H](C)[C@@H](O[C@H]2C[C@@](C)(OC)[C@@H](O)[C@H](C)O2)[C@H](C)[C@@H](O[C@@H]2O[C@H](C)C[C@H](N(C)C)[C@H]2O)[C@](C)(O)C[C@@H](C)CN(C)[C@H](C)[C@@H](O)[C@]1(C)O [Azithromycin]

Marked response:
1. 107
2. 111
